- system.under.test: T1, Aurora A kinase domain (residues 126-390) with hexa-His tag (human, UniProt O14965 126-390)
- T1 construct: Aurora A, human, kinase domain only, residues 126-390, Uniprot O14965; construct for biophysical assays; No removal of the His tag is described; The crystallography constructs differ (Thr287Ala or Cys290Ala; or residues 126-391 without His tag); also called Aurora A protein; pBAT4-AurAS.003 construct; source: E. coli BL21(DE3) with pUBS520, co-expressed with lambda phosphatase, purified (HisTrap, …)
- T1 sequence (looked up): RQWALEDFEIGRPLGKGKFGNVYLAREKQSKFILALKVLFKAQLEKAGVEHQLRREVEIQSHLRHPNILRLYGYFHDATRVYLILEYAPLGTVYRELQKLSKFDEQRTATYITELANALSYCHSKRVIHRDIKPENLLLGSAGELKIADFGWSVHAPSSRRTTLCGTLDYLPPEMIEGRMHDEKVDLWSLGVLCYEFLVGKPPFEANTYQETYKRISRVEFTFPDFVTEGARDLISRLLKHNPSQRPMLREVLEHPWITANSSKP
- assay.text: fluorescence polarisation; direct titration of up to 200 nM Aurora A to 11 nM labelled TPX2 peptide; 100 mM HEPES pH 7.4, 100 mM magnesium acetate, 50 mM NaCl, 0.02% P20, 1 mM DTT, 1 mM ATP, 10% (v/v) DMSO
- condition: both partners purified
pKd: −log10 of the molar value. Where no end group is shown, it is not given here.

binder: SYSYDAPSDFINFSSLDDEGDTQNIDSWFEEKANLENGGGC(Alexa Fluor 488 C5 maleimide)SS (TPX2 (Targeting protein for Xenopus kinesin-like protein 2), residues 7-43, Uniprot Q9ULW0; C-terminal tail that carries the cysteine for labelling; also called labelled TPX2 peptide; labelled TPX2; source: E. coli, purified (Ni Sepharose, labelled, cleaved with HRV 3C protease, second Ni Sepharose, reversed phase C18); not shown: His-tag, N-terminal, cleaved; GB1, N-terminal, cleaved) [TPX2 peptide (residues 7-43) with C-terminal GGGCSS tail, labelled with Alexa Fluor 488]
pKd: 8.92
